Reported values of MIC for individual entries
# Tested on: Staphylococcus aureus
# Assay Remarks: Antimicrobial activity against methicillin-resistant Staphylococcus aureus N315 after 18 to 20 hrs by liquid microdilution method
# Format: functional
Report the value in µg/mL with no unit label.

Look over these answered cases.
Oc1ccc2c(c1)CCc1cccc(c1)-c1cccc(c1)CCc1ccc-2c(O)c1 = 0.5
Oc1ccc2c(c1)CCc1ccc(cc1)Oc1cc(ccc1O)CCc1ccc-2c(O)c1 = 2
Cc1cc(O)ccc1-c1ccc(CCc2ccccc2)cc1O = 16
Oc1ccccc1Oc1ccccc1 = 8

Now turn to the next molecule.
Query block: Give MIC (Staphylococcus aureus) of the following molecule: `Oc1ccc(-c2ccc(CCc3ccccc3)cc2O)c(CCc2ccccc2)c1`
Result block: 8

###

Here, each record is paired with measured MIC data.
# Tested on: Staphylococcus aureus
# Assay Remarks: Antimicrobial activity against methicillin-resistant Staphylococcus aureus OM481 clinical isolate after 18 to 20 hrs by liquid microdilution method
# Format: functional
State just the number; it will be interpreted in µg/mL.

Known MIC results, listed for orientation:
Oc1ccc2c(c1)CCc1ccc(cc1)Oc1cc(ccc1O)CCc1ccc-2c(O)c1 = 2
Oc1ccc2c(c1)CCc1cccc(c1)-c1cccc(c1)CCc1ccc-2c(O)c1 = 0.5
Cc1cc(O)ccc1-c1ccc(CCc2ccccc2)cc1O = 16
Oc1ccc(-c2ccc(CCc3ccccc3)cc2O)c(CCc2ccccc2)c1 = 8

Okay, next one:
Query block: Missing value: MIC, Staphylococcus aureus, entry `Oc1ccccc1Oc1ccccc1` . Fill in?
Result block: 8
